Cited source for all entries: ChEMBL document CHEMBL4689842

test system: Fibroblast; test: Multiplex assay against human fibroblast; assay type: toxicity, cell-based; conditions: 12 h, 10 µM, compound concentration 10 uM, replicate 2
Dear colleague, classification is by Total Cell Count, with ranges listed here: range A (below 60), range B (60 to below 80), range C (80 or more)

Ask | Record `CNC(=O)Nc1ccc2c(c1)[C@@]1(CC2)OC(=O)N(CC(=O)N(Cc2ccc(F)cc2)[C@@H](C)C(F)(F)F)C1=O` — which class?
Reply | range B

Ask | Record O=C(c1cc2c(cc1F)OC(c1ccc(F)cc1)(c1ccc(Cl)cc1Cl)O2)N1CCOCC1 (configuration not stated) — which class?
Reply | range A

====

system: U2OS; test: Multiplex assay against U2OS; assay type: toxicity, cell-based; details: human, 48 h, 1 µM, compound concentration 1 uM, replicate 2
resultType: Population Tubulin-Different-Phenotype (%)
One number for each entry, in %.

Check out these entries, answers already filled in.
>>> quantitativeresult("CN1CCN(Cc2ccc(Nc3ncc(Cl)c(Nc4ccccc4S(=O)(=O)N(C)C)n3)cc2)CC1 [DUBERMATINIB]")
17
>>> quantitativeresult("Cc1cccc(CN2CCN(C(c3ccccc3)c3ccc(Cl)cc3)CC2)c1.Cl.Cl (stereo not given)")
24

Each compound below has a recorded value; state its Population Tubulin-Different-Phenotype (%).
1. O=c1cc(N2CCOCC2)oc2c(-c3cccc4c3sc3ccccc34)cccc12
2. CC1=C(C(=O)Nc2cc3cn[nH]c3cc2F)C(c2ccc(C(F)(F)F)cc2)CC(=O)N1 (stereo not given)
3. Cc1c[nH]c2nccc(Oc3c(F)cc(Nc4cc(Cl)nc(N)n4)cc3F)c12 [BAY-549]

Reply |
1. 18
2. 12
3. 28

====

test system: U2OS; experiment: Multiplex assay against U2OS; assay type: toxicity, cell-based; conditions: human, 12 h, 1 µM, compound concentration 1 uM, replicate 2
resultType: Population Healthy Nuclei (%)
Numbers only, in %.

>>> quantitativeresult("COc1cc2ncn(-c3cc(OCc4ccccc4C(F)(F)F)c(C(N)=O)s3)c2cc1OC [GW843682X]")
80
>>> quantitativeresult("COc1ccccc1CN[C@H]1C2CCN(CC2)[C@H]1C(c1ccccc1)c1ccccc1 [CP-96345]")
92

Read the next record carefully.
Looking up `CCc1ccc(OCc2ccccc2C(=O)Nc2ccc3nc(C)cc(N)c3c2)cc1.Cl` , I see its Population Healthy Nuclei (%) listed as 33

====

system: Fibroblast; assay: Multiplex assay against human fibroblast; format: toxicity, cell-based; conditions: 24 h, 10 µM, compound concentration 10 uM, replicate 2
Please respond with reported Population Tubulin-Different-Phenotype (%) for every item in the list.
Give bare numbers, in %.

Check out these entries, answers already filled in.
>>> quantitativeresult("CC(C)CC(=O)Nc1[nH]nc2c1CN(C(=O)C1CCN(C)CC1)C2(C)C")
22
>>> quantitativeresult("COC(=O)C1=C(C)NC(C)=C(C(=O)OCCCN2CCC(c3ccccc3)(c3ccccc3)CC2)[C@H]1c1cccc([N+](=O)[O-])c1")
100
>>> quantitativeresult("COc1ccccc1CN[C@H]1C2CCN(CC2)[C@H]1C(c1ccccc1)c1ccccc1")
14
>>> quantitativeresult("C=CC(=O)Nc1cccc(Oc2nc(Nc3ccc(N4CCN(C)CC4)cc3OC)ncc2Cl)c1")
14
>>> quantitativeresult("C[C@]12CC[C@@H]3c4ccc(O)cc4CC[C@H]3[C@@H]1CC[C@@H]2O")
43
>>> quantitativeresult("CC(C)NC(=O)N1CC[C@H](NC2=Nc3cc(F)ccc3N(CC(F)F)c3ccc(Cl)cc32)C1")
51
>>> quantitativeresult("O=c1cc(N2CCOCC2)oc2c(-c3cccc4c3sc3ccccc34)cccc12")
70
>>> quantitativeresult("CC1=C(C(=O)Nc2cc3cn[nH]c3cc2F)C(c2ccc(C(F)(F)F)cc2)CC(=O)N1 (centres undefined)")
29
>>> quantitativeresult("C=CC(=O)Nc1ccc2[nH]c(=O)n(C3CCN(Cc4ccc(-c5nc6cc[nH]c(=O)c6cc5-c5ccccc5)cc4)CC3)c2c1")
43
>>> quantitativeresult("C=CC(=O)Nc1cccc(Sc2nc(Nc3ccc(N4CCN(C)CC4)cc3)ncc2Cl)c1")
16

Each compound below has a recorded value; state its Population Tubulin-Different-Phenotype (%).
1. CC(C)OC(=O)N1CCC(Oc2ncnc3c2cnn3-c2ccc(S(C)(=O)=O)cc2F)CC1
2. CN1CCN(Cc2ccc(Nc3ncc(Cl)c(Nc4ccccc4S(=O)(=O)N(C)C)n3)cc2)CC1
3. Cc1nc(N2CC[C@H](O)C2)ncc1-c1cc(C(F)(F)F)cc2[nH]ncc12
4. CC(C)Oc1ccccc1C(=O)Nc1ccccc1C(=O)Nc1cccc(S(=O)(=O)C(F)(F)F)c1
5. COc1cc2ncn(-c3cc(OCc4ccccc4C(F)(F)F)c(C(N)=O)s3)c2cc1OC [GW843682X]

Reply |
31
65
46
98
97

Each compound below has a recorded value; state its Population Tubulin-Different-Phenotype (%).
1. CCCSc1nc(N[C@@H]2C[C@H]2c2ccc(F)c(F)c2)c2nnn([C@@H]3C[C@H](OCCO)[C@@H](O)[C@H]3O)c2n1
2. O=c1[nH]c2ccccc2n1C1CCN(Cc2ccc(-c3[nH]c4cc5ncnc5cc4nc3-c3ccccc3)cc2)CC1
3. O=C(c1cc2c(cc1F)OC(c1ccc(F)cc1)(c1ccc(Cl)cc1Cl)O2)N1CCOCC1 (centres undefined)

Reply |
[97, 40, 100]

====

tested on: U2OS; assay: Multiplex assay against U2OS; assay type: toxicity, cell-based; conditions: human, 24 h, 10 µM, compound concentration 10 uM, replicate 1
resultType: Population Normal (%)

Check out these entries, answers already filled in.
>>> result("Cc1c[nH]c2nccc(Oc3c(F)cc(Nc4cc(Cl)nc(N)n4)cc3F)c12")
"91%"
>>> result("O=c1cc(N2CCOCC2)oc2c(-c3cccc4c3sc3ccccc34)cccc12")
"92%"
>>> result("CN1CCN(Cc2ccc(Nc3ncc(Cl)c(Nc4ccccc4S(=O)(=O)N(C)C)n3)cc2)CC1")
"80%"

Each compound below has a recorded value; state its Population Normal (%).
1. Cc1cccc(CN2CCN(C(c3ccccc3)c3ccc(Cl)cc3)CC2)c1.Cl.Cl (stereo not drawn)
2. Cl.O=C(O)c1cc(-c2ccc(C3CCNCC3)cc2)c2ccc(-c3ccc(C(F)(F)F)cc3)cc2c1
3. CC(C)c1noc(N2CCC(COc3ccc(-c4ccc(S(C)(=O)=O)cc4)nc3)CC2)n1

Reply |
92%
95%
92%

Each compound below has a recorded value; state its Population Normal (%).
1. CC(C)OC(=O)N1CCC(Oc2ncnc3c2cnn3-c2ccc(S(C)(=O)=O)cc2F)CC1
2. CNC(=O)Nc1ccc2c(c1)[C@@]1(CC2)OC(=O)N(CC(=O)N(Cc2ccc(F)cc2)[C@@H](C)C(F)(F)F)C1=O

Reply |
["95%", "99%"]

====

system: HEK-293T; test: Multiplex assay against HEK293T; type: toxicity, cell-based; settings: human, 24 h, 1 µM, compound concentration 1 uM, replicate 2;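 on Population Tubulin-Different-Phenotype (%): share of the cells with healthy nuclei that show this phenotype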
resultType: Population Tubulin-Different-Phenotype (%)
Answers are plain numbers, in %.

Each compound below has a recorded value; state its Population Tubulin-Different-Phenotype (%).
1. C[C@]12CC[C@@H]3c4ccc(O)cc4CC[C@H]3[C@@H]1CC[C@@H]2O
2. Cc1c[nH]c2nccc(Oc3c(F)cc(Nc4cc(Cl)nc(N)n4)cc3F)c12
3. CC(C)c1noc(N2CCC(COc3ccc(-c4ccc(S(C)(=O)=O)cc4)nc3)CC2)n1
4. O=c1[nH]c2ccccc2n1C1CCN(Cc2ccc(-c3[nH]c4cc5ncnc5cc4nc3-c3ccccc3)cc2)CC1
5. CC(C)OC(=O)N1CCC(Oc2ncnc3c2cnn3-c2ccc(S(C)(=O)=O)cc2F)CC1
6. COc1cc2ncn(-c3cc(OCc4ccccc4C(F)(F)F)c(C(N)=O)s3)c2cc1OC [GW843682X]
7. COC(=O)C1=C(C)NC(C)=C(C(=O)OCCCN2CCC(c3ccccc3)(c3ccccc3)CC2)[C@H]1c1cccc([N+](=O)[O-])c1

Reply |
[21, 7, 31, 52, 16, 65, 98]

Looking up Cc1cccc(CN2CCN(C(c3ccccc3)c3ccc(Cl)cc3)CC2)c1.Cl.Cl (stereo not drawn) , I see its Population Tubulin-Different-Phenotype (%) listed as 33

====

system: HEK-293T; experiment: Multiplex assay against HEK293T; assay type: toxicity, cell-based; details: human, 48 h, 1 µM, compound concentration 1 uM, replicate 1
resultType: Population Healthy Nuclei (%)
One number for each entry, in %.

Check out these entries, answers already filled in.
>>> quantitativeresult("Cc1ccccc1C(c1ccccc1C)N1C2CCC1CC(O)(c1ccccc1)C2 (stereo not drawn)")
49
>>> quantitativeresult("C[C@]12CC[C@@H]3c4ccc(O)cc4CC[C@H]3[C@@H]1CC[C@@H]2O [ESTRADIOL]")
61
>>> quantitativeresult("CN1CCN(Cc2ccc(Nc3ncc(Cl)c(Nc4ccccc4S(=O)(=O)N(C)C)n3)cc2)CC1 [DUBERMATINIB]")
51
>>> quantitativeresult("CCc1nn(CCCN2CCN(c3cccc(Cl)c3)CC2)c(=O)n1CCOc1ccccc1.Cl [NEFAZODONE HYDROCHLORIDE]")
77
>>> quantitativeresult("Cl.O=C(O)c1cc(-c2ccc(C3CCNCC3)cc2)c2ccc(-c3ccc(C(F)(F)F)cc3)cc2c1")
27

Each compound below has a recorded value; state its Population Healthy Nuclei (%).
1. CC(C)c1noc(N2CCC(COc3ccc(-c4ccc(S(C)(=O)=O)cc4)nc3)CC2)n1 [GSK-1292263]
2. CC(C)Oc1ccccc1C(=O)Nc1ccccc1C(=O)Nc1cccc(S(=O)(=O)C(F)(F)F)c1
3. CCc1ccc(OCc2ccccc2C(=O)Nc2ccc3nc(C)cc(N)c3c2)cc1.Cl

Reply |
[41, 43, 2]
